system_name: Nuclear receptor subfamily 1 group I member 2 (Rattus norvegicus) (UniProt Q9R1A7)
Sequence (Q9R1A7 whole entry, looked up): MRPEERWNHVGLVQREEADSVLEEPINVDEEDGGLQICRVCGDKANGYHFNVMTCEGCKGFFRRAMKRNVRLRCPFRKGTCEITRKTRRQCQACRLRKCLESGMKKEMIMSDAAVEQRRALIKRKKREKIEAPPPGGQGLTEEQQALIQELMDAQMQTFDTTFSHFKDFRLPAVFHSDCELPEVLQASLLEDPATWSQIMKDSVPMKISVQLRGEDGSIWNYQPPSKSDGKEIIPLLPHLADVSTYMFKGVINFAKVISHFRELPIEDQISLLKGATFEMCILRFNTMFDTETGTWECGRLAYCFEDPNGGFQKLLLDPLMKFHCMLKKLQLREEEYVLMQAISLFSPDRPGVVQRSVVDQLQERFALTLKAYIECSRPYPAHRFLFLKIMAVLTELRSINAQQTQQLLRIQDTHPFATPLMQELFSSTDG
procedure_text: qHTS assay for small molecule activators of the rat pregnane X receptor (rPXR) signaling pathway (AID 651751); further: 0% is about no effect
settings: rPXR reporter cells, luciferase (One-Glo), 24 h
Parameter: max response. Scope: all listed entries.
Please respond with the number in % and leave the unit unwritten.

What max response value was documented for this compound, `CCC(C)(C)C` ?
-3.38

What max response value was documented for this compound, `COC(=O)CC#N` ?
-1.86

What max response value was documented for this compound, `CCNc1ccccc1` ?
-2.55

What max response value was documented for this compound, `Cc1cccc2sc(N)nc12` ?
7.23

What max response value was documented for this compound, `Cc1cccc2cccnc12` ?
-0.272

What max response value was documented for this compound, `C=CCCCCCC` ?
3.09

What max response value was documented for this compound, `O=C(O)/C=C/C(=O)O` ?
2.11

What max response value was documented for this compound, `O=C(O)CNC(=O)c1ccc(CO)o1` ?
-7.08

What max response value was documented for this compound, `O=C(O)c1ccc(Cl)c(Cl)c1` ?
-0.362

What max response value was documented for this compound, `CCOCCOCC` ?
-2.52

What max response value was documented for this compound, `CC(=O)c1ccc([N+](=O)[O-])cc1` ?
-4.15

What max response value was documented for this compound, `NC(=O)c1ccccc1[N+](=O)[O-]` ?
-1.43

What max response value was documented for this compound, `C[C@@H]1O[C@@H](O[C@@H]2[C@@H](O)[C@H](OCCc3ccc(O)c(O)c3)O[C@H](CO[C@@H]3O[C@H](CO)[C@@H](O)[C@H](O)[C@H]3O)[C@H]2OC(=O)/C=C/c2ccc(O)c(O)c2)[C@H](O)[C@H](O)[C@H]1O` ?
1.79

What max response value was documented for this compound, `CCCCCCC=O` ?
-7.57

What max response value was documented for this compound, `ON=C1CCCCC1` ?
3.07

###

Parameter: max response. Scope: all listed entries.
system_name: Nuclear receptor subfamily 1 group I member 2 (Rattus norvegicus)
procedure_text: qHTS assay for small molecule activators of the rat pregnane X receptor (rPXR) signaling pathway (AID 651751); further: 0% is about no effect
settings: rPXR reporter cells, luciferase (One-Glo), 24 h
Active and inactive are the calls of the source. How the calls were made is not given here.

// solved cases for max response follow
compound	max response
CCCCOCCOCCOCCCC	-1.56% (inactive)
C=C(C)C(=O)OC	2.17% (inactive)
C/C=C(/C)C#N	8.65% (inactive)
CCOc1cccc(N)c1	-4.44% (inactive)
O=[N+]([O-])c1ccc(Cl)cc1Cl	-0.131% (inactive)
O=[N+]([O-])c1ccccc1CCO	5.68% (inactive)
CCCCCCCN	-0.183% (inactive)
CC(C)(c1cc(Br)c(OCC(Br)CBr)c(Br)c1)c1cc(Br)c(OCC(Br)CBr)c(Br)c1 (stereo not given)	6.37% (inactive)
Cc1ccc(C)c(N)c1	-4.19% (inactive)
CCCCCCCCC/C=C/CC1CC(=O)OC1=O (stereo not given)	-1.93% (inactive)

With those in mind, consider the next compound.
What max response value was documented for this compound, `O=[N+]([O-])c1cc(C(F)(F)F)ccc1Cl` ?
0.829% (inactive)

###

procedure_text: qHTS assay for small molecule disruptors of the mitochondrial membrane potential - 5 hr assay (AID 651755); further: on the % scale 0 is the no-effect control and ±100 the full control effect; nearly all actives have a fitted effect of over 40% in size
settings: JC-1-type ratio dye; series mostly up to 92.2 µM
Records with an inconclusive call do not appear. Activity calls are given as the source filed them. Calls come from the whole dose curve.
parameter: outcome

compound	outcome
O=C(Cl)c1ccccc1[N+](=O)[O-]	inactive
CC(C)(O)C(=O)O	inactive
FC(F)(F)c1ccccc1Cl	inactive
CCCCN(CCO)CCCC	inactive
Cc1cc(C)c(N)cc1C	inactive
CC(CCl)OC(C)CCl (stereo not given)	inactive
Cc1c(N)cccc1[N+](=O)[O-]	inactive
CC(C)=C1CCC(C)CC1=O (stereo not given)	inactive

What outcome value was documented for this compound, `BrC/C=C/CBr` ?
inactive

What outcome value was documented for this compound, `O=Cc1ccc(Cl)cc1` ?
inactive

What outcome value was documented for this compound, CC(C=O)Cc1ccc(C(C)(C)C)cc1 (stereo not given) ?
inactive

What outcome value was documented for this compound, `CC=C(Cl)Cl` ?
inactive
